# Test system: normal primary NK cells, pool 3 (3 donors) (IL-2 2.5 ng/mL)
# assayNotes: percent inhibition of viability; higher = more inhibition
# experimentalParameters: 72 h; 10 nM
// reported percent inhibition of viability per item
Record the value in %, omitting the unit from your answer.

Illustrative cases are given below, each with its answer.
{"compound": "NC(=O)c1ccc(I)c([N+](=O)[O-])c1 [Iniparib] (max concentration tested 10000 nM)", "unitTag": "%", "percent inhibition of viability": -4.93}
{"compound": "O=C(O)c1ccc(Nc2ncc3c(n2)-c2ccc(Cl)cc2C(c2c(F)cccc2F)=NC3)cc1 [MLN-8054] (max concentration tested 10000 nM)", "unitTag": "%", "percent inhibition of viability": 2.04}
{"compound": "OC[C@H]1O[C@@H](n2cnc3c2N=CNC[C@H]3O)C[C@@H]1O [Pentostatin] (max concentration tested 10000 nM)", "unitTag": "%", "percent inhibition of viability": -12.5}
{"compound": "COc1cc2c(cc1O)CC[C@@H]1[C@@H]2CC[C@]2(C)[C@@H](O)CC[C@@H]12 [2-methoxyestradiol] (max concentration tested 10000 nM)", "unitTag": "%", "percent inhibition of viability": -14}
{"compound": "Cc1cc(C(=O)NOCCO)c(Nc2ccc(I)cc2F)n(C)c1=O [AZD-8330] (max concentration tested 10000 nM)", "unitTag": "%", "percent inhibition of viability": -12}

Would you kindly look at the next entry?
Kindly indicate its recorded percent inhibition of viability. Item: COc1cc(Nc2ncc(F)c(Nc3ccc4c(n3)NC(=O)C(C)(C)O4)n2)cc(OC)c1OC [Tamatinib] (max concentration tested 10000 nM)
-5.15

---

# System: normal primary NK cells, pool 2 (3 donors) (IL-2 2.5 ng/mL)
# assayNotes: drug sensitivity score (DSS) (DSS units); higher = more sensitive; extreme values may be limits of the assay
# experimentalParameters: 72 h
propertyLabel: drug sensitivity score
// print number alone

Kindly indicate its recorded drug sensitivity score. Item: COc1cccc2c1C(=O)c1c(O)c3c(c(O)c1C2=O)C[C@@](O)(C(C)=O)C[C@@H]3O[C@H]1C[C@H](N)[C@H](O)[C@H](C)O1 [Daunorubicin] (max concentration tested 1000 nM)
19.2

Kindly indicate its recorded drug sensitivity score. Item: Cc1cnc(NC(=O)Nc2cc(Br)c(C)cc2OC[C@@H]2CNCCO2)cn1 [Rabusertib] (max concentration tested 1000 nM)
0.35

Kindly indicate its recorded drug sensitivity score. Item: C[C@@H]1C=C2C(=O)O[C@@H]3CC[C@H](C1)[C@]23O [Galiellalactone] (max concentration tested 25000 nM)
6.94

Kindly indicate its recorded drug sensitivity score. Item: Cn1cc(C2=Nc3cc(NC(=O)C(N)C4CCCCC4)cc4c3C2=CNNC4=O)cn1 (stereo unspecified) (max concentration tested 10000 nM)
6.1

Kindly indicate its recorded drug sensitivity score. Item: O=C(O)CC1CC(c2ccccc2)=NO1 (stereo unspecified) [VGX-1027] (max concentration tested 10000 nM)
0

Kindly indicate its recorded drug sensitivity score. Item: Cc1[nH]c2ccccc2c1CCNCc1ccc(/C=C/C(=O)NO)cc1 [Panobinostat] (max concentration tested 1000 nM)
24.6

---

// reported relative IC50 per item
# Test system: NK-92 (IL-2 2.5 ng/mL)
# assayNotes: relative IC50 (inflection point of fitted viability curve, relative to fitted max inhibition); higher = less sensitive
# experimentalParameters: 72 h
Record the value in nM, omitting the unit from your answer.

Illustrative cases are given below, each with its answer.
{"compound": "COc1cc(Nc2ncc3c(n2)-c2ccc(Cl)cc2C(c2c(F)cccc2OC)=NC3)ccc1C(=O)O", "quantitativeReadout": 41.3}
{"compound": "Nc1ncnc2c1nc(Cl)n2[C@@H]1O[C@H](CO)[C@@H](O)[C@H]1O", "quantitativeReadout": 2610}
{"compound": "CC(C)Oc1ccc(C(=O)N[C@H](CNC(=O)CN(C)C)Cc2ccc(-c3cn4cccc([C@H](C)O)c4n3)cc2)cc1Cl", "quantitativeReadout": 204}

Kindly indicate its recorded relative IC50. Item: `O=c1cc(N2CCOCC2)oc2c(-c3ccccc3)cccc12`
12300

Kindly indicate its recorded relative IC50. Item: `O=C(O)c1ccc(O)c2ncccc12`
26400

Kindly indicate its recorded relative IC50. Item: `COC(=O)C[C@](O)(CCCC(C)(C)O)C(=O)O[C@@H]1C(OC)=C[C@]23CCCN2CCc2cc4c(cc2[C@H]13)OCO4`
25.7

Kindly indicate its recorded relative IC50. Item: `CCN(CC)C(=S)SSC(=S)N(CC)CC`
30100

Kindly indicate its recorded relative IC50. Item: `COc1cccc2c1C(=O)c1c(O)c3c(c(O)c1C2=O)C[C@@](O)(C(C)=O)C[C@@H]3O[C@H]1C[C@H](N)[C@H](O)[C@H](C)O1`
45.7

---

# System: normal NK cells expanded with K562-aAPC
# assayNotes: percent inhibition of viability; higher = more inhibition
# experimentalParameters: 72 h; IL-2 2.5 ng/mL; 100 nM
// reported percent inhibition of viability per item
Record the value in %, omitting the unit from your answer.

Illustrative cases are given below, each with its answer.
{"molecule": "O=C(Nc1ccc2[nH]nc(-c3ccncc3)c2c1)[C@@H]1CCN(CC(=O)N2CCN(c3ccc(-c4ncccn4)cc3)CC2)C1 (max concentration tested 10000 nM)", "system": "normal NK cells expanded with K562-aAPC", "unitTag": "%", "percent inhibition of viability": -5.95}
{"molecule": "CN(C)C/C=C/C(=O)Nc1cc2c(Nc3ccc(F)c(Cl)c3)ncnc2cc1O[C@H]1CCOC1 [Afatinib] (max concentration tested 1000 nM)", "system": "normal NK cells expanded with K562-aAPC", "unitTag": "%", "percent inhibition of viability": 8.86}
{"molecule": "CN(c1ccccc1CNc1nc(Nc2ccc3c(c2)CC(=O)N3)ncc1C(F)(F)F)S(C)(=O)=O (max concentration tested 10000 nM)", "system": "normal NK cells expanded with K562-aAPC", "unitTag": "%", "percent inhibition of viability": -2.88}

Kindly indicate its recorded percent inhibition of viability. Item: Cn1cnc2c(F)c(Nc3ccc(Br)cc3Cl)c(C(=O)NOCCO)cc21 [Selumetinib] (max concentration tested 10000 nM)
-3.4

Kindly indicate its recorded percent inhibition of viability. Item: Cc1sc2c(c1C)C(c1ccc(Cl)cc1)=N[C@@H](CC(=O)Nc1ccc(O)cc1)c1nnc(C)n1-2 [OTX015] (max concentration tested 10000 nM)
4.29

---

# Test system: NK-YS (IL-2 2.5 ng/mL)
# assayNotes: percent inhibition of viability; higher = more inhibition
# experimentalParameters: 72 h; 10 nM
propertyLabel: percent inhibition of viability (%)
Record the value in %, omitting the unit from your answer.

Illustrative cases are given below, each with its answer.
{"compound": "COc1ccc(C[C@H](NC(=O)[C@H](C)NC(=O)CN2CCOCC2)C(=O)N[C@@H](Cc2ccccc2)C(=O)C2(C)CO2)cc1 (stereo in doubt) [ONX-0914] (max concentration tested 10000 nM)", "percent inhibition of viability (%)": 15.9}
{"compound": "Cn1cnc2c(F)c(Nc3ccc(Br)cc3Cl)c(C(=O)NOCCO)cc21 [Selumetinib] (max concentration tested 10000 nM)", "percent inhibition of viability (%)": -5.87}
{"compound": "O=c1cc(N2CCOCC2)oc2c(-c3ccccc3)cccc12 (max concentration tested 100000 nM)", "percent inhibition of viability (%)": -4.69}
{"compound": "CCN1CCN(c2ccc(Nc3cc(N(C)C(=O)Nc4c(Cl)c(OC)cc(OC)c4Cl)ncn3)cc2)CC1 [NVP-BGJ398] (max concentration tested 1000 nM)", "percent inhibition of viability (%)": -4.62}
{"compound": "CC[C@]1(O)C[C@@H]2CN(CCc3c([nH]c4ccccc34)[C@@](C(=O)OC)(c3cc4c(cc3OC)N(C)[C@H]3[C@@](O)(C(=O)OC)[C@H](OC(C)=O)[C@]5(CC)C=CCN6CC[C@]43[C@@H]65)C2)C1 [Vinblastine] (max concentration tested 1000 nM)", "percent inhibition of viability (%)": 70.7}

Kindly indicate its recorded percent inhibition of viability. Item: CCc1nc(-c2cccc(C)c2)c(-c2ccnc(NC(=O)c3ccccc3)c2)s1 [TAK-715] (max concentration tested 10000 nM)
3.4

---

# Tested on: SNK-6 (IL-2 2.5 ng/mL)
# assayNotes: percent inhibition of viability; higher = more inhibition
# experimentalParameters: 72 h; 1 nM
Please use criterion met for percent inhibition of viability under 20% and criterion not met for everything else, ties included.

{"compound": "Cc1sc2c(c1C)C(c1ccc(Cl)cc1)=N[C@@H](CC(=O)Nc1ccc(O)cc1)c1nnc(C)n1-2 [OTX015] (max concentration tested 10000 nM)", "system": "SNK-6 (IL-2 2.5 ng/mL)", "labelClass": "criterion met"}
{"compound": "CCc1nc(-c2cccc(C)c2)c(-c2ccnc(NC(=O)c3ccccc3)c2)s1 [TAK-715] (max concentration tested 10000 nM)", "system": "SNK-6 (IL-2 2.5 ng/mL)", "labelClass": "criterion met"}
{"compound": "Cc1cc(C(C)Nc2ccccc2)c2nc(N3CCOCC3)cc(=O)n2c1 (stereo unspecified) [TGX-221] (max concentration tested 10000 nM)", "system": "SNK-6 (IL-2 2.5 ng/mL)", "labelClass": "criterion not met"}

Below 20% on percent inhibition of viability? Entry O=C(/C=C\n1cnc(-c2cc(C(F)(F)F)cc(C(F)(F)F)c2)n1)NNc1cnccn1 [Selinexor] (max concentration tested 10000 nM)
criterion met

Below 20% on percent inhibition of viability? Entry COc1cc2ncnc(Nc3ccc(F)c(Cl)c3)c2cc1OCCCN1CCOCC1 [Gefitinib] (max concentration tested 10000 nM)
criterion not met

Below 20% on percent inhibition of viability? Entry Cc1cc(C(=O)NOCCO)c(Nc2ccc(I)cc2F)n(C)c1=O [AZD-8330] (max concentration tested 10000 nM)
criterion met
